target: Recombinant human DDR1 (Homo sapiens); construct: Recombinant human DDR1 (2.5 nM; aa440-876 containing a GST tag); assay: LanthaScreen Eu Kinase Binding Assay, DDR1; conditions: recombinant human DDR1 (2.5 nM; aa440-876, GST tag), Kinase Tracer 178 5 nM, time-resolved fluorescence, at least two independent replicates; read-out: DDR1 pIC50 (converted)
Sequence (Q08345 440-876 isoform Q08345-2): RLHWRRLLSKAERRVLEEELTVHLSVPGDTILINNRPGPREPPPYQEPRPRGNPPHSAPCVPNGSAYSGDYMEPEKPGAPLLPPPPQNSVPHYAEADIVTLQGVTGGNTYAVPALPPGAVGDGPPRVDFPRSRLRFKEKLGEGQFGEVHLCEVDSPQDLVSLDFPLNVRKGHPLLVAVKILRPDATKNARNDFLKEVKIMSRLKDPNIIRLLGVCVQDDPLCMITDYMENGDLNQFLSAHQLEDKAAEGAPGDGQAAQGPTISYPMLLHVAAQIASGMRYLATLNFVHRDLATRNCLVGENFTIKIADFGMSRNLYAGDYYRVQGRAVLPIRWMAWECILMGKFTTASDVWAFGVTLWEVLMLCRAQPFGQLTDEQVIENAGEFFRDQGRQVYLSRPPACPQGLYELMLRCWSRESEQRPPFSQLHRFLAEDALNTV
Readings of IC50 for the listed molecules

1) COc1cncc(NC(=O)Cn2ccc3cccc(Nc4ccc5c(cnn5C)c4)c3c2=O)c1 | 10 to 100 nM
2) CN(c1ccc2c(cnn2C)c1)c1cccc2ccn(CC(=O)Nc3cccc(C(F)(F)F)c3)c(=O)c12 | 10 to 100 nM
3) Cn1ncc2cc(Nc3cccc4ccn(CC(=O)N5CCCCC5)c(=O)c34)ccc21 | 100 to 1000 nM
4) CN(C)Cc1ccc(NC(=O)Cn2ccc3cccc(Nc4ccc5c(cnn5C)c4)c3c2=O)cc1C(F)(F)F | < 10 nM
5) Cn1ncc2cc(Nc3cccc4ccn(CC(=O)NCC5CC5)c(=O)c34)ccc21 | 10 to 100 nM
6) Cn1ncc2cc(Nc3cccc4ccn(CC(=O)N5CCC[C@H]5C(F)(F)F)c(=O)c34)ccc21 | < 10 nM

Request: # query: IC50 of entry C[C@H](NC(=O)Cn1ccc2cccc(N(C)c3ccc4c(cnn4C)c3)c2c1=O)C(F)(F)F
Response: 10 to 100 nM

Request: Given Cn1ncc2cc(Nc3cccc4ccn(CC(=O)Nc5cc(C(F)(F)F)no5)c(=O)c34)ccc21 , state its recorded IC50.
Response: 10 to 100 nM

====

Biological target: Recombinant human DDR2 (Homo sapiens, UniProt Q16832)
Construct: DDR2 (1.75 nM; aa427-855 containing a GST tag)
Sequence (Q16832 427-855): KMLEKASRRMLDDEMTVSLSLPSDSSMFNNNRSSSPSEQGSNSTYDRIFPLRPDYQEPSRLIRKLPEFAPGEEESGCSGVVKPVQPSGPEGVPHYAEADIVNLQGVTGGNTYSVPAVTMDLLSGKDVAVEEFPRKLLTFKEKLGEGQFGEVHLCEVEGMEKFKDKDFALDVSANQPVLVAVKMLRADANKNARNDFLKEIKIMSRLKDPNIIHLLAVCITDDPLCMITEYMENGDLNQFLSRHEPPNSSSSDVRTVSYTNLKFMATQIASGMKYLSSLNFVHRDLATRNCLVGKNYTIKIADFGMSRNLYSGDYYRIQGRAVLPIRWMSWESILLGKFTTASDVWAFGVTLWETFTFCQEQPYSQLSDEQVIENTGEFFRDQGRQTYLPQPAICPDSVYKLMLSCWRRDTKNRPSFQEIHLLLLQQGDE
Experiment: LanthaScreen Eu Kinase Binding Assay, DDR2
Details: recombinant human DDR2 (1.75 nM; aa427-855, GST tag), Kinase Tracer 178 10 nM, time-resolved fluorescence, at least two independent replicates; read-out: DDR2 pIC50 (converted)
test readout: IC50

Solved cases below.
1. Cc1cn(-c2cc(NC(=O)Cn3ccc4cccc(Nc5ccc6c(cnn6C)c5)c4c3=O)cc(C(F)(F)F)c2)cn1 | 100 to 1000 nM
2. Cn1ncc2cc(Nc3cccc4ccn(CC(=O)Nc5cnco5)c(=O)c34)ccc21 | 100 to 1000 nM
3. Cn1ncc2cc(Nc3cccc4ccn(CC(=O)NCC(F)(F)F)c(=O)c34)ccc21 | 100 to 1000 nM
4. Cn1ncc2cc(Nc3cccc4ccn(CC(=O)N5CCCC[C@H]5C(F)(F)F)c(=O)c34)ccc21 | 10 to 100 nM
5. O=C(Cn1ccc2cccc(Nc3ccc4cn[nH]c4c3)c2c1=O)NCC(F)(F)F | ≥ 1000 nM
6. Cn1ncc2cc(Nc3cccc4ccn(CC(=O)NCC(F)(F)F)c(=O)c34)cc(C(N)=O)c21 | ≥ 1000 nM
7. Cn1ncc2cc(Nc3cccc4ccn(CC(=O)NC5CC5)c(=O)c34)ccc21 | ≥ 1000 nM
8. Cn1ncc2cc(Nc3cccc4ccn(CC(=O)Nc5ccon5)c(=O)c34)ccc21 | 100 to 1000 nM
9. Cn1ncc2cc(Nc3cccc4ccn(CC(=O)NC(C5CC5)C(F)(F)F)c(=O)c34)ccc21 (centres unmarked) | 100 to 1000 nM
10. Cn1nccc1NC(=O)Cn1ccc2cccc(Nc3ccc4c(cnn4C)c3)c2c1=O | 100 to 1000 nM

Request: Value lookup for IC50; key = Cn1ncc2cc(Nc3cccc4ccn(CC(=O)Nc5cncc(C(F)(F)F)c5)c(=O)c34)cnc21
Response: 10 to 100 nM

Request: # input compound: Cc1n[nH]c2cc(Nc3cccc4ccn(CC(=O)Nc5cccc(C(F)(F)F)c5)c(=O)c34)ccc12 ; wanted: its IC50
Response: 100 to 1000 nM

Request: Quick one: IC50 for Cn1ncc2cc(Nc3cccc4ccn(CC(=O)Nc5ccc(C(F)(F)F)nc5)c(=O)c34)ccc21 ?
Response: 100 to 1000 nM

Request: Data request, read-out IC50, for Cn1ncc2cc(Nc3cccc4ccn(CC(=O)Nc5cncnc5)c(=O)c34)ccc21
Response: ≥ 1000 nM

Request: Value lookup for IC50; key = Cn1ncc2cc(Nc3cccc4ccn(CC(=O)N5CCCC5)c(=O)c34)ccc21
Response: ≥ 1000 nM

Request: What measured IC50 goes with Cn1ncc2cc(Nc3cccc4ccn(CC(=O)Nc5cnoc5)c(=O)c34)ccc21 ?
Response: 10 to 100 nM

Data credit: patent US12692247B2
